All values here come from patent US11319318B2.

- Experimental target: bromodomain of BRD9 (GST-BRD9 aa 130-259) / H3 K9/14/18/23Ac(1-28) peptide (Homo sapiens, UniProt Q9H8M2)
- Construct: The protein corresponding to amino acids 130-259 that contains the bromodomain of BRD9; made in house; host or cells: E. coli
- Sequence (Q9H8M2 130-259): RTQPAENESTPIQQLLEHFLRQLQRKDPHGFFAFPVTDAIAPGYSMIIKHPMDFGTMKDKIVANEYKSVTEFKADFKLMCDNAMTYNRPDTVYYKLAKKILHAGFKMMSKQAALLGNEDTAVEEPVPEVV
- Protocol text: BRD9-H3 tetra-acetylated Peptide Inhibition AlphaScreen
- Assay type: binding
# yes (1) = IC50 below 300 nM (exclusive); no (0) = IC50 at/above 300 nM

Qu. Quick check: does CCc1cc(-c2cc(C)c(=O)n(C)c2)cc(OC)c1C(O)CC (centres unmarked) [Compound I-71] have IC50 under 300 nM?
Ans. yes (1)

Qu. Now this one: Cc1cc(-c2cccc(CN(C)C)c2)cn(C)c1=O [Compound I-17]
Ans. no (0)

Qu. Now this one: COc1cc(-c2cc(C)c(=O)n(C)c2)ccc1C1(N(C)C)CC1 [Compound I-53]
Ans. yes (1)

Qu. Now this one: Cn1cc(-c2ccc(C(=O)N3CCNCC3)cc2)c2ccccc2c1=O [II-42]
Ans. no (0)

Qu. Now this one: CN(C)Cc1ccc(-c2cn(C)c(=O)c3ccccc23)cc1 [II-5]
Ans. no (0)

---

- Experimental target: bromodomain of BRD9 (GST-BRD9 aa 130-259) / H3 K9/14/18/23Ac(1-28) peptide (Homo sapiens)
- Construct: The protein corresponding to amino acids 130-259 that contains the bromodomain of BRD9
- Sequence (Q9H8M2 130-259): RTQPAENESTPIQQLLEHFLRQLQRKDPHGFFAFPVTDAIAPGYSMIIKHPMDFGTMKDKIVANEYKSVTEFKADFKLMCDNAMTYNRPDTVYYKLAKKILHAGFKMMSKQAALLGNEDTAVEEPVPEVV
- Protocol text: BRD9-H3 tetra-acetylated Peptide Inhibition AlphaScreen
Note: every record was labeled by where its IC50 sits among class A: < 200 nM; class B: ≥ 200 nM and < 1000 nM; class C: ≥ 1000 nM

Please review the entries below; each comes with its answer.
Molecule | Label class
CN1CCN(C(=O)c2ccc(-c3cn(C)c(=O)c4cncnc34)cc2)CC1 | class C
COc1cc(-c2cc(C)c(=O)n(C)c2C)c(OC)cc1CN1CCN(C)CC1 | class B
Cn1cc(-c2ccc(C(=O)N3CCC3)cc2)c2cc[nH]c2c1=O | class B
COCc1c(OC)cc(-c2cc(C)c(=O)n(C)c2C)cc1OC | class B
COc1cc(-c2cn(C)c(=O)c3[nH]ccc23)ccc1CN1C[C@@H]2CC1CN2C | class A
Cc1c(-c2ccc([C@H](C)N)cc2)cn(C)c(=O)c1C | class C
CCC(CC)(c1ccc(-c2cc(C)c(=O)n(C)c2)cc1OC)N1CCN(C)CC1 | class A
Cc1cc(-c2cn(C)c(=O)c(C)c2C)ccc1C(=O)N1CCN(C)CC1 | class C

Qu. Any idea which band Cc1cc(-c2cc(C)c(=O)n(C)c2C)ccc1C1(N2CCN(C)CC2)CC1 is in?
Ans. class B

Qu. Now this one: COc1cc(S(=O)(=O)NC2CNC2)c(OC)cc1-c1cn(C)c(=O)c(C)c1C
Ans. class A

Qu. Now this one: COc1cc(-c2cc(C)c(=O)n(C)c2)c(OC)cc1CN1CCNCC1
Ans. class B

Qu. Now this one: Cc1cc(-c2ccc(CN3CCN(C)CC3)cc2)c(C)n(C)c1=O
Ans. class C

Qu. Now this one: CN1CCN(C(=O)c2ccc(-c3cn(C)c(=O)c4cnccc34)cc2)CC1
Ans. class B

---

- Experimental target: bromodomain of BRD9 (GST-BRD9 aa 130-259) / H3 K9/14/18/23Ac(1-28) peptide (Homo sapiens)
- Construct: The protein corresponding to amino acids 130-259 that contains the bromodomain of BRD9
- Protocol text: BRD9-H3 tetra-acetylated Peptide Inhibition AlphaScreen
Readout kind: log10 IC50 (log10 of the value in nM)
The figures below represent log10 of IC50, where IC50 is stated in nM.

Consider the worked cases shown below.
Smiles input | Experimental target | Meas value
Cc1cc(-c2ccc([C@H](C)N3CCCC3)cc2)cn(C)c1=O | bromodomain of BRD9 (GST-BRD9 aa 130-259) / H3 K9/14/18/23Ac(1-28) peptide (Homo sapiens) | 2.16
Cc1cc(-c2ccc3c(c2)CCN(C)C3)c(C)n(C)c1=O | bromodomain of BRD9 (GST-BRD9 aa 130-259) / H3 K9/14/18/23Ac(1-28) peptide (Homo sapiens) | 2.67
COc1cc(-c2cc(C)c(=O)n(C)c2)ccc1CN1CCN(Cc2ccc3nc[nH]c3c2)CC1 | bromodomain of BRD9 (GST-BRD9 aa 130-259) / H3 K9/14/18/23Ac(1-28) peptide (Homo sapiens) | 1.74
COc1cc(-c2cn(C)c(=O)c3cncnc23)c(OC)cc1CN(C)C | bromodomain of BRD9 (GST-BRD9 aa 130-259) / H3 K9/14/18/23Ac(1-28) peptide (Homo sapiens) | 2.54
CNCCN(C)S(=O)(=O)c1cc(OC)c(-c2cc(C)c(=O)n(C)c2C)cc1OC | bromodomain of BRD9 (GST-BRD9 aa 130-259) / H3 K9/14/18/23Ac(1-28) peptide (Homo sapiens) | 2.11
Cc1cc(-c2ccc(CN3CC(O)C3)cc2)cn(C)c1=O | bromodomain of BRD9 (GST-BRD9 aa 130-259) / H3 K9/14/18/23Ac(1-28) peptide (Homo sapiens) | 2.27
CNC1CN(Cc2c(OC)cc(-c3cc(C)c(=O)n(C)c3)cc2OC)C1 | bromodomain of BRD9 (GST-BRD9 aa 130-259) / H3 K9/14/18/23Ac(1-28) peptide (Homo sapiens) | 1.52
COc1cc(-c2cn(C)c(=O)c(C)c2C)ccc1CN1C[C@@H]2CC1CN2C | bromodomain of BRD9 (GST-BRD9 aa 130-259) / H3 K9/14/18/23Ac(1-28) peptide (Homo sapiens) | 2.18

Qu. # input molecule: C[C@@H](N)c1ccc(-c2cn(C)c(=O)c3ccccc23)cc1 ; wanted: its log10 IC50
Ans. 2.96

Qu. Now this one: COc1cc(S(=O)(=O)NCCN(C)C)c(OC)cc1-c1cc(C)c(=O)n(C)c1
Ans. 2.12

Qu. Now this one: COc1cc(-c2cc(C)c(=O)n(C)c2C)cc(OC)c1CN1CC(O)C1
Ans. 1.00

Qu. Now this one: Cc1cc(-c2ccc(S(=O)(=O)N3CCNCC3)cc2)cn(C)c1=O
Ans. 2.32

---

- Experimental target: bromodomain of BRD9 (GST fusion) / acetylated histone H4 peptide (BET Bromodomain Ligand) (Homo sapiens, UniProt Q9H8M2)
- Construct: A GST fusion protein of the bromodomain of BRD9
- Protocol text: BRD9-H4 Tetraacetylated Peptide Inhibition AlphaScreen
Readout kind: pIC50
Scale: negative log10 of molar concentration, which is what pIC50 denotes.

Molecule | Meas value
Cc1ccc(-c2cc(C)c(=O)n(C)c2)cc1NCc1cccnc1 [Compound I-42] | 6.33
Cc1cc(-c2ccc(C(=O)N3CC4CCC3C4)cc2)cn(C)c1=O (stereo not drawn) [Compound I-38] | 6.59
CNCc1ccc(-c2cc(C)c(=O)n(C)c2)cc1C [Compound I-36] | 7.38

Now look at this entry.
Qu. # input molecule: Cc1cc(-c2cc(C)c(=O)n(C)c2)ccc1CN1CCNCC1 [Compound I-33] ; wanted: its pIC50
Ans. 7.66

---

- Experimental target: bromodomain of BRD9 (GST-BRD9 aa 130-259) / H3 K9/14/18/23Ac(1-28) peptide (Homo sapiens)
- Construct: The protein corresponding to amino acids 130-259 that contains the bromodomain of BRD9
- Protocol text: BRD9-H3 tetra-acetylated Peptide Inhibition AlphaScreen
# IC50 per record follows
Lab book: enter the figure in nM, no units written.

Smiles input | Scale unit | IC50
Cn1cc(-c2ccc(C(=O)N3CCNCC3)cc2)c2cc[nH]c2c1=O | nM | 81
Cc1c(-c2ccc([C@@H](C)N)cc2)cn(C)c(=O)c1C | nM | 1380
COc1cc(-c2cc(C)c(=O)n(C)c2)ccc1CN1C[C@@H]2CC1CN2 | nM | 121
Cc1cc(-c2cc(C)c(=O)n(C)c2)ccc1S(=O)(=O)N1CCN(C)CC1 | nM | 521
Cc1cc(-c2ccc3c(c2)CNC3)c(C)n(C)c1=O | nM | 167

Qu. # input molecule: COc1cc(-c2cn(C)c(=O)c(C)c2C)ccc1CN1C[C@H]2C[C@@H]1CN2C ; wanted: its IC50
Ans. 348

Qu. Now this one: Cc1cc(-c2cccc(CN)c2)cn(C)c1=O
Ans. 849

Qu. Now this one: COc1cc(-c2cc(C)c(=O)n(C)c2C)ccc1CN1C[C@@H]2CC1CN2C
Ans. 387

Qu. Now this one: Cc1c(-c2ccc(C(=O)N3CCNCC3)cc2)cc(I)c(=O)n1C
Ans. 235

Qu. Now this one: Cc1c(-c2ccc(CN)cc2)cn(C)c(=O)c1C
Ans. 834
